test: A CellTox Green Cytotoxicity Assay to monitor cytotoxicity in HEK293 cells - 40 hour (AID 1224871); conditions: CellTox Green fluorescence; series mostly up to 76.8 µM; further: nearly all actives have a fitted effect of over 45% in size
Records with an inconclusive call do not appear. Active and inactive are the calls of the source. The call rests on the fitted dose curve; in most records, active means well fitted activation curve with a large enough effect in the repeat runs; inconclusive means weak or mixed curves; inactive means flat fitted curve, though single readings scatter.
// allowed return values: active, inactive

Study these solved cases before continuing.
> print(dat)
                                   compound  assigned.label
1  O=c1[nH]c(=O)n([C@H]2C[C@H](O)[C@@H](CO)O2)cc1C(F)(F)F        inactive
2                            CN(C)Cc1ccccc1        inactive
3          COc1ccc2nc(NC(=O)Nc3ccccc3)sc2c1          active
4  CC1CN(c2ccccc2)NC1=O (stereo unspecified)        inactive
5  CC(C)C1=CC2=CC[C@@H]3[C@](C)(CCC[C@@]3(C)C(=O)O)[C@H]2CC1        inactive
6                        COc1cc(C)ccc1C(C)C        inactive

Please share the test call associated with CC(C)=CCCC(C)CCOC=O (stereo unspecified) .
inactive

Please share the test call associated with CC(Oc1c(Cl)cccc1Cl)C1=NCCN1 (stereo unspecified) .
inactive

Please share the test call associated with O=C(O)[C@@H]1CSCN1 .
inactive

Please share the test call associated with NC(=O)NS(=O)(=O)c1ccc(Cl)cc1 .
inactive

Please share the test call associated with CC(C)CCCCCCc1ccc(OCCOCCO)cc1 .
inactive

Please share the test call associated with OCCN1CCN(CCO)CC1 .
inactive

Please share the test call associated with CCCCNc1ccc(C(=O)OCCN(CC)CC)cc1 .
inactive
